This collection of values is drawn from patent US12569566B2.

# tgt: hTLR7 (Homo sapiens, UniProt Q9NYK1)
# Construct: host or cells: HEK-Blue hTLR7 (HEK293-derived reporter cell line)
# Sequence (Q9NYK1 27-1049): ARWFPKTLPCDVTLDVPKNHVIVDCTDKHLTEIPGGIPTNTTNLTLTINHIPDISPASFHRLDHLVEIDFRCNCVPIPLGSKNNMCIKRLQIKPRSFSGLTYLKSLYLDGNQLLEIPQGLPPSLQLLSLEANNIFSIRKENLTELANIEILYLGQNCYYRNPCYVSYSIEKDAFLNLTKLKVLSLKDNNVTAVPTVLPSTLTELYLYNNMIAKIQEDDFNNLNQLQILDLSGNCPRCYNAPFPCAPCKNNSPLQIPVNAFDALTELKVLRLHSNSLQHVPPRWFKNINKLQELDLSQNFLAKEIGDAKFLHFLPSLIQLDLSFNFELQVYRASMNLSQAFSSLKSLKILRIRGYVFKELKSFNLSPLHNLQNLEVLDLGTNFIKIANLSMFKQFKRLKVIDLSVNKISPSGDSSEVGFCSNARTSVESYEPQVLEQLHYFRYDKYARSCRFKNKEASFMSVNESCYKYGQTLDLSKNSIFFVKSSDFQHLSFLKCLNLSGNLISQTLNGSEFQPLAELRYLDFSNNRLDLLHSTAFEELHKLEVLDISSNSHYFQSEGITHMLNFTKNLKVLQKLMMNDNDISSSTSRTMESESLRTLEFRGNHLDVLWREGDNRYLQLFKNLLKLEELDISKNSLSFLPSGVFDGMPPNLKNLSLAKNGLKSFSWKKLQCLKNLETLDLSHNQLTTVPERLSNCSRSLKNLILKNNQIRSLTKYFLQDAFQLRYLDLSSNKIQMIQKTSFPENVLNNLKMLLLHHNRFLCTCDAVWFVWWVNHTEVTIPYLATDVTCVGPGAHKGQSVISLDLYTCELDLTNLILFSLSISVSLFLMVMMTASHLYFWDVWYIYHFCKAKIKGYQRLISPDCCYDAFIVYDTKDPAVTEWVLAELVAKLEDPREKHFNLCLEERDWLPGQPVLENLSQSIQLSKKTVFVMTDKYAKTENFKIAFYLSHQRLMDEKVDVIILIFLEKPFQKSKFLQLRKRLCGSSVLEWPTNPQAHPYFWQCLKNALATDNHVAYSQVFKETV
# assay-summary: HEK-Blue hTLR7 reporter assay (NF-kB-induced SEAP, Quanti-Blue, OD 655 nm)
# Format: cell-based
# condition-description: Table 10, FIG. 5A; 24 h; read-out: TLR7 EC50
property-label: pEC50
The quantity pEC50 is defined as the negative base-10 logarithm of the molar concentration.

pEC50 reading for CCOCc1nc2c(N)nc3ccccc3c2n1CCCCNC(=O)c1ccc(N)c(OC)c1 [AXC-807] : 6.38
